These measurements were taken from patent US6107273A.

Reported % cell survival values are given for each entry in this list.
Test system: WEHI 164 cells
protocol-description: In vitro cytotoxicity assay: protection of WEHI 164 cells from TNF-α cytotoxicity (AlamarBlue)
Assay type: cell-based, mouse
assay-context: 50 μg/ml peptide; TNF 25 pg/ml, 16 h
Square brackets hold non-standard residues; d marks the D form. Ends that are not written are not given here. Pen = CC(C)(S)[C@H](N)C(=O)O

| substance | % cell survival, % |
| --- | --- |
| CSYQTKVC (cysteine pairing not given here) [Peptide 521] | 56.51 |
| CPQAEGQLC (cysteine pairing not given here) [Peptide 510] | 59.3 |
| Pen-Thr-Pro-Glu-Gly-Ala-Glu-Ala-Pen ([Pen]TPEGAEA[Pen]; cysteine pairing not given here) [Peptide 562] | 25.2 |
| CRRANA[dC] (cysteine pairing not given here) [Peptide 512] | 70.8 |
